# Measured Target: Human recombinant PDE4 (Homo sapiens (Human), UniProt Q08499)
# Sequence (Q08499 other isoform, or with tags, fused parts or gaps): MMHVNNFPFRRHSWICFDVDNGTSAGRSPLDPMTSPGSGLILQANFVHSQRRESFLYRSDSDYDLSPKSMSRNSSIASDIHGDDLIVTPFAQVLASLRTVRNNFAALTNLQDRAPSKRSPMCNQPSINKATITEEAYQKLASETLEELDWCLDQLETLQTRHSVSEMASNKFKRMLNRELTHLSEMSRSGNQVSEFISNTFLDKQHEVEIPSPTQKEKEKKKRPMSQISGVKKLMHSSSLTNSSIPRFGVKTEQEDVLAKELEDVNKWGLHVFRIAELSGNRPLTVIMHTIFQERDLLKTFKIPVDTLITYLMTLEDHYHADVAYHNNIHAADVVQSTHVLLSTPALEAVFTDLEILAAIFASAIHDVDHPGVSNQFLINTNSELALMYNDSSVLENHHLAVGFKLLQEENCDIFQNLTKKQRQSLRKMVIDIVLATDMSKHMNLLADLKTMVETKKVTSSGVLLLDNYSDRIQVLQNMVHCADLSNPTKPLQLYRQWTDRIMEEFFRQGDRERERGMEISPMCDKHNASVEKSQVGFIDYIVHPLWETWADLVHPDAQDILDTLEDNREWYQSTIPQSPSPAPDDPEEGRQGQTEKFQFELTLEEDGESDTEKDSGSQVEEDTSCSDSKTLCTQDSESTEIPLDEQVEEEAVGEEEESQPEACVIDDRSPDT
# Experimental Protocol: PDE4 assay (SPA, cAMP cleavage)
# Experimental Conditions: human recombinant PDE4, 1 hour incubation, cAMP 1×10^-5M
pIC50: −log10 of the molar value.
Hi, to clarify the labels: Satisfied covers pIC50 from 7 upward, Not satisfied covers anything below 7.

Prompt: For this compound, is measured pIC50 7 or higher? "COc1ccc(C(=O)Cc2ccnc3ccccc23)n2nc(C3(CO)CC3)nc12"
Completion: Not satisfied

Prompt: For this compound, is measured pIC50 7 or higher? "COc1ccc(C(=O)Cc2c(Cl)cncc2Cl)n2nc(-c3ccco3)nc12"
Completion: Satisfied

Prompt: For this compound, is measured pIC50 7 or higher? "COc1ccc(C(=O)Cc2c(Cl)cncc2Cl)n2nc(C3(C(=O)N4CCOCC4)CC3)nc12"
Completion: Satisfied

Prompt: For this compound, is measured pIC50 7 or higher? "COc1ccc(C(=O)Cc2cnccn2)n2nc(C3(CO)CC3)nc12"
Completion: Not satisfied

Prompt: For this compound, is measured pIC50 7 or higher? "COc1ccc(C(=O)Cc2c(Cl)cncc2Cl)n2nc(CO)nc12"
Completion: Not satisfied

Prompt: For this compound, is measured pIC50 7 or higher? "COc1ccc(C(=O)Cc2c(Cl)cncc2Cl)n2nc(C)nc12"
Completion: Satisfied

Prompt: For this compound, is measured pIC50 7 or higher? "COc1ccc(C(=O)Cc2c(Cl)cncc2Cl)n2nc(C3(C(=O)NCc4ccccn4)CC3)nc12"
Completion: Satisfied

====

# Measured Target: Human recombinant PDE4 (Homo sapiens (Human))
# Experimental Protocol: PDE4 assay (SPA, cAMP cleavage)
# Experimental Conditions: human recombinant PDE4, 1 hour incubation, cAMP 1×10^-5M
pIC50: −log10 of the molar value.
Hi, to clarify the labels: satisfied covers pIC50 from 6 upward, not satisfied covers anything below 6.

Prompt: For this compound, is measured pIC50 6 or higher? "COc1ccc(C(=O)Cc2c(Cl)cncc2Cl)n2nc(C3(CO)CC3)nc12"
Completion: satisfied

Prompt: For this compound, is measured pIC50 6 or higher? "COc1ccc(C(=O)Cc2c(Cl)cncc2Cl)n2nc(C3CC3)nc12"
Completion: satisfied

Prompt: For this compound, is measured pIC50 6 or higher? "COc1ccc(C(=O)Cc2ccnc(C#N)c2)n2nc(C3(CO)CC3)nc12"
Completion: not satisfied

Prompt: For this compound, is measured pIC50 6 or higher? "COc1ccc(C(=O)Cc2nccnc2Cl)n2nc(C3(CO)CC3)nc12"
Completion: satisfied

Prompt: For this compound, is measured pIC50 6 or higher? "COc1ccc(C(=O)Cc2ccncc2)n2nc(C3(CO)CC3)nc12"
Completion: satisfied

====

# System: Human peripheral blood mononuclear cells (PBMC)
# Experimental Protocol: TNFα release in LPS-stimulated PBMC
# Assay type: cell-based
# Experimental Conditions: 30 minutes pre-incubation, lipopolysaccharide stimulation 18 hours, read-out: TNFa IC50
Quantity Name: log10(IC50) (log10 of the value in nM)
Hello, just confirming the data are log10 of IC50 with units of nM.

Prompt: Find log10(IC50) (Human peripheral blood mononuclear cells (PBMC)) for the entry COc1ccc(C(=O)Cc2c(Cl)cncc2Cl)n2nc(C3CC3)nc12 [Compound 101]
Completion: 0.48

Prompt: Find log10(IC50) (Human peripheral blood mononuclear cells (PBMC)) for the entry COc1ccc(C(=O)Cc2c(Cl)c[n+]([O-])cc2Cl)n2nc(C3CC3)nc12 [Compound 128]
Completion: 0.70

Prompt: Find log10(IC50) (Human peripheral blood mononuclear cells (PBMC)) for the entry COc1ccc(C(=O)Cc2c(Cl)cncc2Cl)n2nc(C3(C(=O)N4CCOCC4)CC3)nc12 [Compound 109]
Completion: 1.46

Prompt: Find log10(IC50) (Human peripheral blood mononuclear cells (PBMC)) for the entry COc1ccc(C(=O)Cc2c(Cl)cncc2Cl)n2nc(C3(C(=O)NCc4cccnc4)CC3)nc12 [Compound 113]
Completion: -0.30

Prompt: Find log10(IC50) (Human peripheral blood mononuclear cells (PBMC)) for the entry COc1ccc(C(=O)Cc2ccnc3ccccc23)n2nc(C3(CO)CC3)nc12 [Compound 121]
Completion: 3.32

Prompt: Find log10(IC50) (Human peripheral blood mononuclear cells (PBMC)) for the entry COc1ccc(C(=O)Cc2ccnc(C#N)c2)n2nc(C3(CO)CC3)nc12 [Compound 125]
Completion: 3.68

Prompt: Find log10(IC50) (Human peripheral blood mononuclear cells (PBMC)) for the entry COc1ccc(C(=O)Cc2ccncc2)n2nc(C3(CO)CC3)nc12 [Compound 122]
Completion: 2.14

Prompt: Find log10(IC50) (Human peripheral blood mononuclear cells (PBMC)) for the entry COc1ccc(C(=O)Cc2ccncc2Br)n2nc(C3(CO)CC3)nc12 [Compound 124]
Completion: 2.06

====

# Measured Target: Human recombinant PDE4 (Homo sapiens (Human), UniProt Q08499)
# Experimental Protocol: PDE4 assay (SPA, cAMP cleavage)
# Experimental Conditions: human recombinant PDE4, 1 hour incubation, cAMP 1×10^-5M
Quantity Name: pIC50
Convention used: pIC50 is expressed as -log10 of the molar concentration.

Prompt: Looking for the measured pIC50 of "COc1ccc(C(=O)Cc2c(Cl)cncc2Cl)n2nc(C3(C(=O)NCc4cccnc4)CC3)nc12" , can you help?
Completion: 9.15

Prompt: Looking for the measured pIC50 of "COc1ccc(C(=O)Cc2c(Cl)cncc2Cl)n2nc(COCc3ccccc3)nc12" , can you help?
Completion: 7.59

Prompt: Looking for the measured pIC50 of "COc1ccc(C(=O)Cc2c(Cl)cncc2Cl)n2nc(C3(C(N)=O)CC3)nc12" , can you help?
Completion: 8.52

====

# System: Human peripheral blood mononuclear cells (PBMC)
# Experimental Protocol: TNFα release in LPS-stimulated PBMC
# Type: cell-based
# Experimental Conditions: 30 minutes pre-incubation, lipopolysaccharide stimulation 18 hours, read-out: TNFa IC50
Rule: measured IC50 below 30 nM gets criterion met; anything equal to or greater than 30 nM gets criterion not met.

Prompt: Is IC50 strictly under 30 nM for the entry COc1ccc(C(=O)Cc2c(Cl)cncc2Cl)n2nc(COCc3ccccc3)nc12 [Compound 104] ?
Completion: criterion not met

Prompt: Is IC50 strictly under 30 nM for the entry COc1ccc(C(=O)Cc2c(Cl)cncc2Cl)n2nc(CO)nc12 [Compound 105] ?
Completion: criterion not met

Prompt: Is IC50 strictly under 30 nM for the entry COc1ccc(C(=O)Cc2c(Cl)cncc2Cl)n2nc(C3(C(=O)NCc4ccncc4)CC3)nc12 [Compound 114] ?
Completion: criterion met

Prompt: Is IC50 strictly under 30 nM for the entry COc1ccc(C(=O)Cc2c(Cl)cncc2Cl)n2nc(C3(CNCc4ccccc4)CC3)nc12 [Compound 119] ?
Completion: criterion met

Prompt: Is IC50 strictly under 30 nM for the entry COc1ccc(C(=O)Cc2c(Cl)cncc2Cl)n2nc(C3(C(=O)NCc4ccccc4)CC3)nc12 [Compound 110] ?
Completion: criterion met

Prompt: Is IC50 strictly under 30 nM for the entry COc1ccc(C(=O)Cc2c(Cl)cncc2Cl)n2nc(C3(CO)CC3)nc12 [Compound 106] ?
Completion: criterion met

Prompt: Is IC50 strictly under 30 nM for the entry COc1ccc(C(=O)Cc2c(Cl)cncc2Cl)n2nc(C)nc12 [Compound 107] ?
Completion: criterion not met

Prompt: Is IC50 strictly under 30 nM for the entry COc1ccc(C(=O)Cc2ccccc2Cl)n2nc(C3CC3)nc12 [Compound 127] ?
Completion: criterion not met

Prompt: Is IC50 strictly under 30 nM for the entry COc1ccc(C(=O)Cc2c(Cl)cncc2Cl)n2ncnc12 [Compound 102] ?
Completion: criterion not met

Prompt: Is IC50 strictly under 30 nM for the entry COc1ccc(C(=O)Cc2nccnc2Cl)n2nc(C3(CO)CC3)nc12 [Compound 126] ?
Completion: criterion not met

Prompt: Is IC50 strictly under 30 nM for the entry COc1ccc(C(=O)Cc2cnccn2)n2nc(C3(CO)CC3)nc12 [Compound 120] ?
Completion: criterion not met

Prompt: Is IC50 strictly under 30 nM for the entry COc1ccc(C(=O)Cc2c(Br)cncc2Br)n2nc(C3(CO)CC3)nc12 [Compound 123] ?
Completion: criterion met

Prompt: Is IC50 strictly under 30 nM for the entry COc1ccc(C(=O)Cc2c(Cl)cncc2Cl)n2nc(C3(C(N)=O)CC3)nc12 [Compound 118] ?
Completion: criterion met

Prompt: Is IC50 strictly under 30 nM for the entry COc1ccc(C(=O)Cc2c(Cl)cncc2Cl)n2nc(-c3ccco3)nc12 [Compound 103] ?
Completion: criterion met

Prompt: Is IC50 strictly under 30 nM for the entry COc1ccc(C(=O)Cc2c(Cl)cncc2Cl)n2nc(C3(C(=O)NCc4ccccn4)CC3)nc12 [Compound 112] ?
Completion: criterion met
